Where do these numbers come from? They come from patent US20230365711A1.

- Assay target: T1, huNABA-avi-his (hybrid protein N-A1-B3-A2: N and A1 domains of human BGP, B3 domain of human CEA, A2 domain … (human, biotinylated at the avi tag (in vivo, co-transfected biotin ligase)))
- T1 construct: also called NABA-avi-his reagent; biotinylated NABA
- T1 chain: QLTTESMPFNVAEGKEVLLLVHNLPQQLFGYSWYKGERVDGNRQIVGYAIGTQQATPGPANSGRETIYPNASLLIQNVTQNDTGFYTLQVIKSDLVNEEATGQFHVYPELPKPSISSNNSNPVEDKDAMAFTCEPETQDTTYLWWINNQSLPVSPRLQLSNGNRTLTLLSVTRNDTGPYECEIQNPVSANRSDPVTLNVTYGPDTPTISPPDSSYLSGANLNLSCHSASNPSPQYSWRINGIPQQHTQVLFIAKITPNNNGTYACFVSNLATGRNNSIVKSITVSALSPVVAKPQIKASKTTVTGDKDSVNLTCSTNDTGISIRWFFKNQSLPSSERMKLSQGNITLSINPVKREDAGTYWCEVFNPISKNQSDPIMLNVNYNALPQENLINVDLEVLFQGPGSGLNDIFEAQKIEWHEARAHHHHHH
- Protocol notes: Proteon SPR, antibody analyte on biotinylated NABA (Neutravidin chip)
- Excerpt: Shown in FIG. 22 are Proteon (Biacore) sensorgrams obtained for the binding of the CDR-H3 antibody variants to the CEA antigen-harbouring chimeric protein NABA. […] The affinity matured precursor clone 5HFF12 and the parental antibody CH7A were included for direct comparison. […] The relative affinity of each, measured in the bivalent form, is as follows: 5HFF12>CH7A (Y98A/D99Y)>CH7A (Y98A)>CH7A>CH7A (E102Q)>CH7A (D99Y)>CH7A (D99H)>CH7A (A103T)>CH7A (V101F)>CH7A (W95Y).
Parameter measured: Kd

Binder	Test value
humanized PR1A3 antibody with heavy chain variable region CH7A and light chain variable region 2F1 (antibody, V domains shown, Measured in the bivalent form; also called CH7Ax2F1; parental antibody CH7A) VH: QVQLVQSGSELKKPGASVKVSCKASGYTFTEFGMNWVRQAPGQGLEWMGWINTKTGEATYVEEFKGRFVFSLDTSVSTAYLQISSLKAEDTAVYYCARWDFYDYVEAMDYWGQGTTVTVSS VL: DIQMTQSPSSLSASVGDRVTITCKASAAVGTYVAWYQQKPGKAPKLLIYSASYRKRGVPSRFSGSGSGTDFTLTISSLQPEDFATYYCHQYYTYPLFTFGQGTKLEIKR	1.07 nM
antibody with heavy chain CH7A (E102Q) and light chain 2F1 (antibody, V domains shown, Bivalent form) VH: QVQLVQSGSELKKPGASVKVSCKASGYTFTEFGMNWVRQAPGQGLEWMGWINTKTGEATYVEEFKGRFVFSLDTSVSTAYLQISSLKAEDTAVYYCARWDFYDYVQAMDYWGQGTTVTVSS VL: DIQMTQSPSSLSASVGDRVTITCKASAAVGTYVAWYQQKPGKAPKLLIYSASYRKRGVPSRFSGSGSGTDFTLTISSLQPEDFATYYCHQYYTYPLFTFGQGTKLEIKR	1.63 nM
antibody with heavy chain CH7A (Y98A) and light chain 2F1 (antibody, V domains shown, Bivalent form) VH: QVQLVQSGSELKKPGASVKVSCKASGYTFTEFGMNWVRQAPGQGLEWMGWINTKTGEATYVEEFKGRFVFSLDTSVSTAYLQISSLKAEDTAVYYCARWDFADYVEAMDYWGQGTTVTVSS VL: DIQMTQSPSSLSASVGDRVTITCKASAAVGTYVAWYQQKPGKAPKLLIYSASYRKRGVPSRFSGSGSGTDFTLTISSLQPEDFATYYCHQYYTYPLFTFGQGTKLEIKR	0.52 nM
